- System: HOP-62 NSCLC
- ASSAY_COMMENT: NCI tumour cell line growth inhibition, 48 h
Collected TGI values appear next to each entry.
The response must be a number in µM with no trailing unit.

COc1cc(-c2cc(/C=C/C(=O)c3ccc4c(c3)OCO4)[nH]n2)cc(OC)c1OC    5.17

## Input Dear colleague, I am looking for the recorded TGI of the following compound: `Cc1cc(Cl)ccc1NC(=O)/C(Cl)=C(/Cl)C(=O)O`
## Output 47.7

## Input Same question for `O=C(c1ccccc1)c1ccc(Cl)c([N+](=O)[O-])c1` please.
## Output 28.8

## Input Same question for `O=C(CCc1nnc(-c2c(Cl)cccc2Cl)o1)c1nc2ccccc2[nH]1` please.
## Output 41.3

---

- Test system: SNB-75 CNS
- ASSAY_COMMENT: NCI tumour cell line growth inhibition, 48 h
Collected TGI values appear next to each entry.

CC(=O)Oc1ccc2ccc(=O)oc2c1OC(C)=O    > 100 µM

Now for another entry.
## Input Dear colleague, I am looking for the recorded TGI of the following compound: `Cn1c(=O)oc2cc(C(=S)N3CCC(Cc4ccccc4)CC3)ccc21`
## Output > 100 µM

---

Collected TGI values appear next to each entry.
- Tested on: ACHN renal
- ASSAY_COMMENT: NCI tumour cell line growth inhibition, 48 h

O=C(CCc1nnc(-c2c(Cl)cccc2Cl)o1)c1nc2ccccc2[nH]1    > 100 µM
CCOc1ccc(C2=C(Cl)c3cc(OC)c(OC)cc3C2Cl)cc1 (configuration not stated)    > 100 µM
CC(C)(C)c1ccc(-c2nc3ccccc3c(=O)o2)cc1    > 100 µM
CCCN(CCC)c1ccc(C=O)cc1    > 100 µM
COc1cc(COC(=O)N2CCCCC2C(=O)O)c([N+](=O)[O-])cc1OC (configuration not stated)    > 100 µM
CC(Oc1ccccc1)C(=O)NN (configuration not stated)    > 100 µM
O=C1C=C(c2c(-c3ccccc3)[nH]c3ccccc23)C(=O)N1c1ccccc1    71.4 µM
COc1ccc(C2=NN(C(=O)c3ccccc3)C(O)(c3cc(F)c(Cl)cc3Cl)C2)cc1OC (configuration not stated)    > 100 µM
CN(C)C1(C(=O)O)CC1    > 100 µM
COc1cc(CNc2nc3ccccc3nc2-c2cccs2)cc(OC)c1OC    29.3 µM

## Input Dear colleague, I am looking for the recorded TGI of the following compound: `O=C(c1ccccc1)c1ccc(Cl)c([N+](=O)[O-])c1`
## Output 21.3 µM

## Input Same question for `CC1=Nc2nc3ccccc3n2C(C)(C)C1` please.
## Output > 100 µM

---

- Tested on: HT29 colon
- ASSAY_COMMENT: NCI tumour cell line growth inhibition, 48 h
TEST_READOUT: TGI (µM)
The response must be a number in µM with no trailing unit.

See these solved cases before continuing.
Cn1cc(C2=C(c3c4n(c5ccccc35)CC(CN)C4)C(=O)NC2=O)c2ccccc21 (stereo not given)    11.8
CN(C)c1ccc(/C=C/C(=O)c2ccccc2)cc1Br    51
C=CC1(c2ccc3ccccc3c2)OCC(CC)(CC)CO1    57.5

## Input Dear colleague, I am looking for the recorded TGI of the following molecule: `COc1ccc(/C=C2\N=C(c3ccccc3)N(c3cc(C(F)(F)F)ccc3Cl)C2=O)cc1OC`
## Output 63.1
